- target system: NAD-dependent deacetylase Sirtuin 1 (human)
- Sequence (Q96EB6 2-747 limits assumed): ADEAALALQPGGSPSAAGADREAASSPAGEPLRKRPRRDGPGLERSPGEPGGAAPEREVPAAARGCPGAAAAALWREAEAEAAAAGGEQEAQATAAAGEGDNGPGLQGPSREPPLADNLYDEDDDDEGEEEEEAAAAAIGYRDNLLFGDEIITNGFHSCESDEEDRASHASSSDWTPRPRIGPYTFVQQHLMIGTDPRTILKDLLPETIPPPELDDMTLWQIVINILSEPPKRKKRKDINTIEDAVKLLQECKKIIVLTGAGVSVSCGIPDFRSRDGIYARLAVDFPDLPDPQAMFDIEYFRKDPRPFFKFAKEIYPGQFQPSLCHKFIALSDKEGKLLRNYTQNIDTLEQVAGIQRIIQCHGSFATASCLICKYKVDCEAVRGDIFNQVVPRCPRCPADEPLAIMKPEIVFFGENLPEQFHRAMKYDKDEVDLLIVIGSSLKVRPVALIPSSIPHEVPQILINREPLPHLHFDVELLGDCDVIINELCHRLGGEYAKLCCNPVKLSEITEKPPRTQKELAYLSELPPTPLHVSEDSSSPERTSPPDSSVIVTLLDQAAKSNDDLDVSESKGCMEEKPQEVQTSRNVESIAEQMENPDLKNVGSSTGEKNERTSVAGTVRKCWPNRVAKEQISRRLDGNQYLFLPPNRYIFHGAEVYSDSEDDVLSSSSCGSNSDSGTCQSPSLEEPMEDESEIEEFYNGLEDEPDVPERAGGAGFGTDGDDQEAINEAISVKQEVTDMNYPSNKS
- measurement notes: primary screen, delta tm
- Parameters: single well (n = 1, as 'the same TSA')
- condition description: 10 µM
In all, about 3,200 compounds were measured (“TSA(with NAD+) / Primary screening (TSA) / delta Tm (K)”: median about -0.04, highest 2% from about 0.37 on). The list comes from a sample in which the highest values are over-represented; it also holds close analogues and randomly drawn compounds.
quantity measured: TSA(with NAD+) / Primary screening (TSA) / delta Tm (K)

compound=O=C(CCc1c[nH]c2ccccc12)NCCc1ccco1 measured="-0.11 K"
compound="Cc1ncc(CN2CCC(Nc3ccc4nnnn4n3)C(C)C2)s1 (stereo not drawn)" measured="0.09 K"
compound=CN(C)Cc1ccc(C(=O)Nc2cccc(C(=O)NC3CC3)c2)cc1 measured="0.01 K"
compound=O=C(Nc1cccc(C(F)(F)F)c1)c1cccc(NC(=O)c2cc3c(cc2[N+](=O)[O-])OCCO3)c1 measured="0.38 K"
compound="COC(=O)c1ccc(C2NC(=O)NC3=C2C(=O)N(CC(C)O)C3)cc1 (stereo not drawn)" measured="-0.05 K"
compound=Cc1ccc(-c2nn(-c3ccccc3)cc2C=C2C(=O)NC(=O)NC2=O)o1 measured="-0.59 K"
compound="CC(C)C(NC(=O)CCCn1c(=O)oc2cc([N+](=O)[O-])ccc21)c1nnc2ccccn12 (stereo not drawn)" measured="-0.11 K"
compound=O=C(CCc1ccccc1)NC1CCN(c2ccc([N+](=O)[O-])c3cccnc23)CC1 measured="-0.21 K"
compound=O=C(CCc1c[nH]c2ccccc12)Nc1nnc(-c2ccccc2)o1 measured="0.39 K"
compound="O=C(CN1CCCC2(CC=CCC2)C1)N1CCc2[nH]c3ccccc3c2C1 (stereo not drawn)" measured="0.06 K"
compound="NC(=O)c1cc(C2CCCN(c3nccc(-n4cccn4)n3)C2)n[nH]1 (stereo not drawn)" measured="0.05 K"
compound="Cc1cc(F)ccc1N1CCCC(Nc2ccc3nnnn3n2)C1 (stereo not drawn)" measured="0.68 K"

* * *

- target system: NAD-dependent deacetylase Sirtuin 1 (human)
- measurement notes: primary screen, delta tm
- Parameters: single well (n = 1, as 'the same TSA')
- condition description: 10 µM
Whole data set: some 3,200 compounds, median “TSA(with NAD+) / Primary screening (TSA) / delta Tm (K)” near -0.04, cut for the highest 2% near 0.37. The full list was thinned out, with the highest values kept by preference.
// thresholds for TSA(with NAD+) / Primary screening (TSA) / delta Tm (K) classes: I (below -0.01 K), II (-0.01 K to below 0.2 K), III (0.2 K or more)

compound="O=C(NCC1CCCO1)Nc1ccc(NC(=O)c2ccccn2)cc1 (centres unmarked)" target_system="NAD-dependent deacetylase Sirtuin 1 (human)" assigned_category=II
compound=COc1ccc(CC(=O)NCCNC(=O)c2ccc(C)c(F)c2)cc1 target_system="NAD-dependent deacetylase Sirtuin 1 (human)" assigned_category=I
compound=O=C(O)c1nc(Nc2ccc(Cl)cc2)c2ccccc2n1 target_system="NAD-dependent deacetylase Sirtuin 1 (human)" assigned_category=I
compound="CC1COCCN1c1ncnc2ccsc12 (centres unmarked)" target_system="NAD-dependent deacetylase Sirtuin 1 (human)" assigned_category=II
compound=Cc1ccc(-n2nnnc2SCc2nc3c(cnn3-c3ccccc3)c(=O)[nH]2)cc1 target_system="NAD-dependent deacetylase Sirtuin 1 (human)" assigned_category=I
compound=COc1ccc(N(C)S(=O)(=O)c2cccc(C(=O)Nc3ncc(C(N)=O)s3)c2)cc1 target_system="NAD-dependent deacetylase Sirtuin 1 (human)" assigned_category=I
compound="CC(OC(=O)c1cccc(S(=O)(=O)NCc2ccccc2)c1)C(=O)NC12CC3CC(CC(C3)C1)C2 (centres unmarked)" target_system="NAD-dependent deacetylase Sirtuin 1 (human)" assigned_category=II
compound=Cc1ccc(N(C)S(=O)(=O)c2cccc(C(=O)Nc3ccc(Br)c(C)c3)c2)cc1 target_system="NAD-dependent deacetylase Sirtuin 1 (human)" assigned_category=III
compound=COc1ccc2cc(/C=C/C(=O)Nc3ccc(C(N)=O)cc3)ccc2c1 target_system="NAD-dependent deacetylase Sirtuin 1 (human)" assigned_category=III
compound=COc1ccc(-c2cc(NC(=O)CCNC(=O)c3ccc(Cl)cc3)ccc2OC(F)F)cc1 target_system="NAD-dependent deacetylase Sirtuin 1 (human)" assigned_category=III
compound=O=C(NN/C=C1/C(=O)N(c2cccc(C(F)(F)F)c2)C(=O)c2ccccc21)c1cccc(S(=O)(=O)Nc2ccccc2Cl)c1 target_system="NAD-dependent deacetylase Sirtuin 1 (human)" assigned_category=III
compound=Cc1ccc(NC(=O)c2cccc(S(=O)(=O)N(C)c3ccc(C)cc3)c2)cc1 target_system="NAD-dependent deacetylase Sirtuin 1 (human)" assigned_category=III
compound=CN(c1ccccc1)S(=O)(=O)c1cccc(NC(=O)c2cccc(C#N)c2)c1 target_system="NAD-dependent deacetylase Sirtuin 1 (human)" assigned_category=II
compound="COc1cc(C=C(C(=O)NCC2CCCO2)C(=O)NCC2CCCO2)ccc1OCC(=O)Nc1ccc(C)cc1 (centres unmarked)" target_system="NAD-dependent deacetylase Sirtuin 1 (human)" assigned_category=I
compound=Cc1ccc(N(C)S(=O)(=O)c2cccc(C(=O)Nc3ccc4c(c3)C(=O)N(C)C4=O)c2)cc1 target_system="NAD-dependent deacetylase Sirtuin 1 (human)" assigned_category=III
compound=Cc1ccc(N(C)S(=O)(=O)c2cccc(C(=O)Nc3ccc(C(N)=O)cc3)c2)cc1 target_system="NAD-dependent deacetylase Sirtuin 1 (human)" assigned_category=III
compound=CC1(C)CC(=O)C(=CNNC(=O)CC23CC4CC(CC(C4)C2)C3)C(=O)C1 target_system="NAD-dependent deacetylase Sirtuin 1 (human)" assigned_category=I
compound=Cc1ccc(N(C)S(=O)(=O)c2cccc(C(=O)Nc3cccc(C(=O)NC4CC4)c3)c2)cc1 target_system="NAD-dependent deacetylase Sirtuin 1 (human)" assigned_category=I
compound="Cc1ccc([N+](=O)[O-])cc1S(=O)(=O)Nc1ccc(C(=O)OC(C)C(=O)NC23CC4CC(CC(C4)C2)C3)cc1 (centres unmarked)" target_system="NAD-dependent deacetylase Sirtuin 1 (human)" assigned_category=III
compound=NC(=O)c1oc2ccccc2c1NC(=O)Cc1ccc(Cl)c(Cl)c1 target_system="NAD-dependent deacetylase Sirtuin 1 (human)" assigned_category=II
compound=COc1ccc(N(C)S(=O)(=O)c2cccc(C(=O)Nc3ccc(OC)c(OC)c3)c2)cc1 target_system="NAD-dependent deacetylase Sirtuin 1 (human)" assigned_category=I
compound=COc1cccc(NC(=O)c2cccc(S(=O)(=O)N(C)c3ccc(C)cc3)c2)c1 target_system="NAD-dependent deacetylase Sirtuin 1 (human)" assigned_category=I
compound=COc1ccc(N2C(=O)/C(=C/NNC(=O)C34CC5CC(CC(C5)C3)C4)c3ccccc3C2=O)cc1 target_system="NAD-dependent deacetylase Sirtuin 1 (human)" assigned_category=II
compound="CC1CCc2[nH]c3ccc(C(=O)Nc4cccc(S(=O)(=O)N(C)c5ccccc5)c4)cc3c2C1 (centres unmarked)" target_system="NAD-dependent deacetylase Sirtuin 1 (human)" assigned_category=III
compound=Cc1ccc(N(C)S(=O)(=O)c2cccc(C(=O)Nc3ccccc3C(F)(F)F)c2)cc1 target_system="NAD-dependent deacetylase Sirtuin 1 (human)" assigned_category=I
compound=COc1ccc(N(C)S(=O)(=O)c2cccc(C(=O)Nc3ccc(-n4cnnn4)cc3)c2)cc1 target_system="NAD-dependent deacetylase Sirtuin 1 (human)" assigned_category=III
compound=COc1cc(-c2nc(-c3ccccc3)c(-c3ccccc3)[nH]2)ccc1OS(=O)(=O)c1ccc(C)cc1 target_system="NAD-dependent deacetylase Sirtuin 1 (human)" assigned_category=II
compound=Cc1cccc(-n2ccnc2SCC(=O)Nc2ccc(S(=O)(=O)Nc3nccs3)cc2)c1C target_system="NAD-dependent deacetylase Sirtuin 1 (human)" assigned_category=II
compound=CCNC(=O)c1cccc(NC(=O)C2CCN(S(=O)(=O)c3cc(C(C)(C)C)ccc3C)CC2)c1 target_system="NAD-dependent deacetylase Sirtuin 1 (human)" assigned_category=II
compound="COc1cc(C(C)=O)ccc1COc1ccc(C(=O)OC(C)C(=O)NC23CC4CC(CC(C4)C2)C3)cc1OC (centres unmarked)" target_system="NAD-dependent deacetylase Sirtuin 1 (human)" assigned_category=II
compound="Cc1ccc(C(=O)Nc2ccc(NC(=O)NCC3CCCO3)cc2)cn1 (centres unmarked)" target_system="NAD-dependent deacetylase Sirtuin 1 (human)" assigned_category=III
compound=CCOC(=O)C1=C(COC(=O)c2sc(-c3ccco3)nc2-c2ccccc2)NC(=O)NC1 target_system="NAD-dependent deacetylase Sirtuin 1 (human)" assigned_category=II
compound=COc1ccc(N(C)S(=O)(=O)c2cccc(C(=O)Nc3ccc(Br)c(C(F)(F)F)c3)c2)cc1 target_system="NAD-dependent deacetylase Sirtuin 1 (human)" assigned_category=III
compound="OC(CNc1ncccn1)c1ccc(Cl)cc1 (centres unmarked)" target_system="NAD-dependent deacetylase Sirtuin 1 (human)" assigned_category=I
compound=O=C(CC12CC3CC(CC(C3)C1)C2)NN/C=C1/C(=O)N(Cc2ccccc2)C(=O)c2ccccc21 target_system="NAD-dependent deacetylase Sirtuin 1 (human)" assigned_category=II
compound=Cc1ccc(OCc2nc3ccccc3n2Cc2ccccc2)cc1 target_system="NAD-dependent deacetylase Sirtuin 1 (human)" assigned_category=I
